# Target desc: T1, human PD-L1-His (Sino Biological, Cat #10084-H08H) (human, UniProt Q9NZQ7 19-238)
# T1 construct: Bought protein; also called human PD-L1 ECD-His; recombinant human PD-L1-His protein; not shown: His tag
# T1 sequence (Q9NZQ7 19-238): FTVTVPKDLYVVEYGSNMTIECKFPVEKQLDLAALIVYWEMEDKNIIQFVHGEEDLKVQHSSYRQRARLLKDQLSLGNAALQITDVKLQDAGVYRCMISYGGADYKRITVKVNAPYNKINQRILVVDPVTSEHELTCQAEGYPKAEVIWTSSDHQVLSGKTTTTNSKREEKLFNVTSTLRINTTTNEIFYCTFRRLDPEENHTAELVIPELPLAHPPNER
# Experimental details: BLI (Gator), antibody on HFC probe, human PD-L1-His in solution
Documented kon across a set of binders
Lab book: enter the figure in M⁻¹ s⁻¹, no units written.

Binder: 32E2 (antibody, human IgG1, V domains shown) VH: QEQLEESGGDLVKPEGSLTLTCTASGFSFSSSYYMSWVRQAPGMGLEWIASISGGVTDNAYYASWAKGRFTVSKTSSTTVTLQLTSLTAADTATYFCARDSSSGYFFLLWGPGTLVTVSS VL: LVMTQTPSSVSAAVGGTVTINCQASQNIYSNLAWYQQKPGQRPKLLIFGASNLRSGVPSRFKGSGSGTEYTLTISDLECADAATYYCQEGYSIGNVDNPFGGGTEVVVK
Numeric readout: 371000

Noted for 56H3 (antibody, human IgG1, V domains shown) VH: QEQLVESGGGLVQPEGSLTLTCTASEFSFSNNYYMSWVRQAPGKGLEWLGSIGIGSGITDYASWAKGRFTISKASSTTVTLQMTTLTAADTAIYFCARWTSGGGGFGLWGPGTLVTVSS VL: QVLTQTSSPVSAAVGGTVTINCQSSQTIYSDYLFWYQQKPGQPPKLLIYQTSTLASGVPSRFSGSGSGTQFTLTISGVQCDDAATYYCQGYYSGYIWTFGGGTEVVVN : its kon reads 686000

The binder identified as 62E6 (antibody, human IgG1, V domains shown) VH: QEQLEESGGDLVKPEGSLTLTCTASGFSFSGDYYMSWVRQAPGKGLEWIASIYTGSLNIYYATWAKGRFTISLTSSTTVTLQMTSLTAADTATYFCARRNKNADYGHFDLWGPGTLVTVSS VL: YDMTQTPASVEVAVGGTVTIKCQASQSINDRLAWYQQKPRQPPKLLIYGASTLASGVPSRFKGSGSGTEFTLTISDLECVDAATYYCQQGWTVSSLDNAFGGGTEVVAK registered its kon at 788000
